Every entry's value here was drawn from ChEMBL document CHEMBL2218924.

residual activity for assorted compounds
target entity: Ephrin type-A receptor 1 (Homo sapiens)
Sequence (whole entry): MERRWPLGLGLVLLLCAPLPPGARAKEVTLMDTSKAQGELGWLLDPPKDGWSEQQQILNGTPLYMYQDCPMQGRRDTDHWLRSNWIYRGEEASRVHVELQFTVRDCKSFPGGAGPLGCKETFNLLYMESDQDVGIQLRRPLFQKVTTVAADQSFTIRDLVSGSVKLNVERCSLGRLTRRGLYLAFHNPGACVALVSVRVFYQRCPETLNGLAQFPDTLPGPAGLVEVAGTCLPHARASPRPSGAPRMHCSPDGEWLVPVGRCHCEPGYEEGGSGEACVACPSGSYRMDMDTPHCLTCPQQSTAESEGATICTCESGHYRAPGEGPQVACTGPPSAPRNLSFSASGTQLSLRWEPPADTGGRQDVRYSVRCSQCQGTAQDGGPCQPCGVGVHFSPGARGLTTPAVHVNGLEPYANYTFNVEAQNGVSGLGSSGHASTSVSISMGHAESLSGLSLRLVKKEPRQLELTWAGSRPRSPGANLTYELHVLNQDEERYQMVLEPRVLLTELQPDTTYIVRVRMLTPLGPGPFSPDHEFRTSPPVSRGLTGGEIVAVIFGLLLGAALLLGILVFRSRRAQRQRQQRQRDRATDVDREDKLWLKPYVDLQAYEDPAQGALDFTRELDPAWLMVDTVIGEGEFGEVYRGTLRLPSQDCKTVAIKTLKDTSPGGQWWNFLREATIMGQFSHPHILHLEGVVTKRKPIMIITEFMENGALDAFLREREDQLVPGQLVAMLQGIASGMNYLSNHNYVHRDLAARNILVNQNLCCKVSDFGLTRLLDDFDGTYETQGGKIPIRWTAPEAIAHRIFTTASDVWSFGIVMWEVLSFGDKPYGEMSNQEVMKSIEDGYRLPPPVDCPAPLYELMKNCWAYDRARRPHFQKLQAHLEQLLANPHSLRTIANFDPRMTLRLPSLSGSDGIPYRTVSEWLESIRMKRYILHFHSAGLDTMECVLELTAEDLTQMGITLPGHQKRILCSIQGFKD
experimental conditions: at 1 µM
The reply should contain only the number, in %.

{"compound": "O=C1Cc2c([nH]c3ccc([N+](=O)[O-])cc23)-c2ccccc2N1", "reported value": 109}
{"compound": "O=S(=O)(c1cccc2cnccc12)N1CCCNCC1", "reported value": 100}
{"compound": "O=C(O)/C=C/c1cc(Br)c(Br)c(Br)c1Br", "reported value": 104}
{"compound": "O=C(NC(NC(=S)Nc1ccc(F)c([N+](=O)[O-])c1)C(Cl)(Cl)Cl)C(c1ccccc1)c1ccccc1 (configuration not stated)", "reported value": 104}
{"compound": "O=c1cc(N2CCOCC2)oc2c1ccc1ccccc12", "reported value": 91}

residual activity for c1ccc(-c2cnc(Nc3ccc(OCCN4CCCC4)cc3)s2)cc1 is 77

Looking up Oc1cccc(-c2nc(N3CCOCC3)c3oc4ncccc4c3n2)c1 , I found its residual activity recorded as 91

Reported residual activity ( COc1cc2nccc(Oc3ccc(NC(=S)NC(=O)c4ccccc4C)cc3)c2cc1OC ) = 46

====

Recorded residual activity, one value per entry.
target entity: Tyrosine-protein kinase Mer (Homo sapiens)
experimental conditions: at 1 µM
API: value field is a number in %; no unit string.

Recorded results for 5 molecules are shown here.
{"smiles string": "NC(=O)Nc1sc(-c2ccc(F)cc2)cc1C(N)=O", "units text": "%", "residual activity": 54}
{"smiles string": "CC(C)c1nn(-c2c(Cl)cccc2Cl)c2nc(Cc3ccc(OCCO)cc3)[nH]c(=O)c12", "units text": "%", "residual activity": 98}
{"smiles string": "N#Cc1c(NC(=O)c2cccc3ccccc23)sc2c1CCCC2", "units text": "%", "residual activity": 94}
{"smiles string": "CCCCc1c(-c2ccc(OC)cc2)[nH]c2nccnc12", "units text": "%", "residual activity": 68}
{"smiles string": "O=c1cc(N2CCOCC2)oc2c1ccc1ccccc12", "units text": "%", "residual activity": 105}

Per the record, O=C(c1cc2cc(O)ccc2[nH]1)c1cc2cc(O)ccc2[nH]1 has residual activity of 47

Measured residual activity, O=C1Nc2ccc(Cl)cc2/C1=C/c1cc(Cl)c(O)c(Cl)c1 : 92

Value of residual activity reported for the molecule CCCCc1c(-c2ccc(O)cc2)[nH]c2nccnc12 is 73
